- Test system: NCI-H1355
- experimentDescription: relative viability (nuclei count vs DMSO), 5 days (fraction); higher = more cells survive
- particulars: first compound 0.04 µM
Reported relative viability by item:
Give a plain numeric answer without units written out.

Some solved entries appear below for comparison.
>>> assayvalue("COc1cc(N2CCC(C(N)=O)CC2)ccc1Nc1nc(N)c(Cl)c(Nc2ccccc2S(=O)(=O)C(C)C)n1 [HG-5-88-01] + C[C@]1(O)C[C@@H](c2nc(-c3ccc4ccc(-c5ccccc5)nc4c3)c3c(N)nccn32)C1 [Linsitinib] (partner 1 µM)")
0.863
>>> assayvalue("Clc1ccc(Nc2nnc(Cc3ccncc3)c3ccccc23)cc1 [Vatalanib] + Cc1nc(Nc2ncc(C(=O)Nc3c(C)cccc3Cl)s2)cc(N2CCN(CCO)CC2)n1 [Dasatinib] (partner 0.075 µM)")
0.75
>>> assayvalue("COc1cc(N2CCC(C(N)=O)CC2)ccc1Nc1nc(N)c(Cl)c(Nc2ccccc2S(=O)(=O)C(C)C)n1 [HG-5-88-01] + COc1cc2c(Oc3ccc(NC(=O)C4(C(=O)Nc5ccc(F)cc5)CC4)cc3F)ccnc2cc1OCCCN1CCOCC1 [Foretinib] (partner 0.25 µM)")
1.01

Here's the next entry for you.
Query block: Quick one: relative viability for C[C@@H]1CN(CC(=O)Nc2ccc3c(c2)Cc2cccc(-c4cc(=O)cc(N5CCOCC5)o4)c2S3)C[C@H](C)O1 + Nc1ncn([C@H]2C[C@H](O)[C@@H](CO)O2)c(=O)n1 [Decitabine] (partner 2 µM) ?
Result block: 0.389
